Assign growth to each entry below.
Tested on: HOP-92 NSCLC
Test Details: NCI-60 one-dose screen, 48 h (100 = growth as untreated, 0 = no growth, -100 = all killed)
Test Settings: 10 µM unless noted
This is part of a sample that, as a whole, favours compounds with a hit. Of some 83,000 tested, about 20% had one in any assay. The source made the active and inactive calls. How the source made its calls: active means growth percent below 10; inactive means the rest.

Hey, HOP-92 NSCLC data for Cc1ccc(C)c(-c2csc(Nc3ccc(C)c(C)c3)n2)c1 : growth came out at 27.1% (inactive)

Entry CCOC(=O)C1=C(C)N=c2s/c(=C\c3cc(Cl)ccc3O)c(=O)n2C1c1ccc(OC)cc1 (configuration not stated) : growth on HOP-92 NSCLC = 69.2% (inactive)

With HOP-92 NSCLC as the test system, Cc1ccc(NC2=CC(=O)C(=O)c3ccccc32)c(C)c1 showed growth of 123% (inactive)

Measured growth (HOP-92 NSCLC), entry COc1ccc(CCN2CCC(CN(C)Cc3cnn(-c4ccccc4)c3)CC2)cc1 : 37.3% (inactive)

Reported growth (HOP-92 NSCLC) for entry N#C/C(=C\c1c(-c2ccccc2)[nH]c2ccccc12)C(=O)c1ccccc1 is 77.5% (inactive)

Entry Cc1ccc2cc3c(N)c4c(C)ccc(C)c4nc3nc2c1 ; assay system HOP-92 NSCLC; growth recorded at 29.4% (inactive)

// assay HOP-92 NSCLC, entry COC(=O)C1(C)CCC[C@]2(C)[C@H]3C[C@H]4C(C(C)C)=C[C@]3(CC[C@@H]12)[C@H]1[C@@H]4[C@@H](OCC#CCN2CCOCC2)CC[C@@H]1OCC#CCN1CCOCC1 (some centres not stated) , growth value = 54.9% (inactive)

Short answer on HOP-92 NSCLC for O=C1/C(=C/c2ccc(O)cc2)COc2ccc(O)c(O)c21 , growth: 52.7% (inactive)

HOP-92 NSCLC growth of O=C1/C=C/[C@@H](O)[C@@H]2C[C@@H](O)C[C@H]2/C=C/CCCCO1 is -3.95% (active)

Hey, HOP-92 NSCLC data for CC[C@]1(O)C[C@@H]2CN(CCc3c([nH]c4ccccc34)[C@@](C(=O)OC)(c3cc4c(cc3OC)N(C)[C@H]3[C@@](O)(C(=O)OC)[C@H](OC(=O)CCCBr)[C@]5(CC)C=CCN6CC[C@]43[C@@H]65)C2)C1 : growth came out at -0.264% (active)

Field growth (system: HOP-92 NSCLC) for entry CCOC(=O)C1=CN(C)C=C(C(=O)OCC)C1c1cc(Br)c(OCC)c(OC)c1 = 2.87% (active)

Entry CCCCN1CCN(c2ccc3nc(-c4ccc5nc(-c6ccc(C(F)(F)F)cc6)[nH]c5c4)[nH]c3c2)CC1 under HOP-92 NSCLC had growth of -13.5% (active)

Entry CCCCCCc1cc2cc(-c3nc4ccccc4[nH]3)c(=Nc3ccccc3C)oc2cc1O ; assay system HOP-92 NSCLC; growth recorded at 13.3% (inactive)

Note to self: growth of N#C/C(=C1\SC(=O)CN1c1ccccc1)c1nc2ccccc2s1 with HOP-92 NSCLC was 102% (inactive)

// growth (HOP-92 NSCLC) for CC1(C)CC2(C)OC2C2(C1)N=NC(=Nc1ccccc1)O2 (configuration not stated) = 87.6% (inactive)

Item: COc1ccc(-c2cn[nH]c2-c2ccc(OC)c(O)c2)cc1 | System: HOP-92 NSCLC | growth: 61.5% (inactive)

Item COc1ccc(-c2nsc3c2NC(=O)CC3c2ccc3c(c2)OCCO3)cc1 (configuration not stated) ; assay system HOP-92 NSCLC; growth reported as 66.1% (inactive)

Bench note, HOP-92 NSCLC: O=C(/C=C/c1cccc(Cl)c1)OCc1ccc2cc1OCC#C/C=C\C#CCO2 , growth reads 150% (inactive)

COc1ccc(-c2nc(N3CCN(C(=O)C4CCCCC4)CC3)c3c4c(sc3n2)CCCC4)cc1 tested on HOP-92 NSCLC gave growth: 44.8% (inactive)

HOP-92 NSCLC assay, molecule Cc1nc2ccccc2c(/C=C/c2ccccc2)c1C(=O)/C=C/c1ccc(Cl)cc1 , recorded growth = 46.9% (inactive)

The molecule CC(=O)c1ccc2oc(=O)n(Cc3ccc(C#N)cc3)c(=O)c2c1 , tested on HOP-92 NSCLC, showed growth of 95.2% (inactive)

Lab note: molecule COC(=O)[C@@H]1CCCN1C(=O)[C@H]1CCCN1C(=O)[C@@H](Cc1c[nH]c2ccccc12)NC(=S)Nc1cc(C(F)(F)F)cc(C(F)(F)F)c1 tested on HOP-92 NSCLC; recorded growth was 80.9% (inactive)
